# system-under-test: LRT (GST-tagged N-terminal LRT domain of BteA) (Bordetella pertussis, UniProt Q7VSD3)
# Construct: gene BP0500; N-terminal lipid raft targeting (membrane localization) domain, aa 1-130 of 656; N-terminal GST tag (pGEX-6P1) kept; E. coli Rosetta 2
# Sequence (Q7VSD3 entry or part of it): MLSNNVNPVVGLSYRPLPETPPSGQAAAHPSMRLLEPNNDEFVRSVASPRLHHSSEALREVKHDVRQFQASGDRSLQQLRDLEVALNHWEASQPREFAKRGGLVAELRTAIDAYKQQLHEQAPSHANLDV
# assay-info: SPR steady state, immobilized liposomes
# Assay type: binding
observation-type: Kd (nM)
Kindly provide the numeric value in nM only, without the unit symbol.

Per the records, this molecule ( `CCCCCCCC/C=C\CCCCCCCC(=O)OC[C@H](COP(=O)(O)O[C@@H]1[C@H](O)[C@H](O)[C@@H](OP(=O)(O)O)[C@H](OP(=O)(O)O)[C@H]1O)OC(=O)CCCCCCC/C=C\CCCCCCCC` ) has Kd equal to 446
